# Measurement description: Viability of THP-1 cells, MTT assay
# Format: cell-based, Human
# Recorded conditions: human, THP-1 cells (monocytes); alone, 10 μM; reported with the TNFα data
Measurement type: viability at 24 h, 10 µM
Field: value (include unit after the number)

Supply measured viability at 24 h, 10 µM of C=C(C)[C@@H]1CCC(C)=C[C@H]1c1c(O)cc(CCCCC)cc1O [CBD, cannabidiol] in your reply.
140%

====

# Measurement description: Viability of THP-1 cells, MTT assay
# Format: cell-based, Human
# Recorded conditions: human, THP-1 cells (monocytes); alone, 20 μM; reported with the TNFα data
Measurement type: viability at 24 h, 20 µM (%)
// note: answer is a bare numeric in %

C=C(C)[C@@H]1CCC(C)=C[C@H]1c1c(O)cc(CCCCC)cc1O
140

Identify measured viability at 24 h, 20 µM associated with "CCCCCc1cc(O)c(C/C=C(\C)CCC=C(C)C)c(O)c1"
140
